All figures here come from the supplement of paper PMC8882468.

# Tested on: HCI-008 (organoid from a HER2-enriched breast cancer xenograft)
# assay-notes: CTG-3D luminescence at 96 h relative to day-0 seeding control (ratio to day 0); higher = more growth / less cytotoxicity; PDxO 3D drug screen, 96 h, CTG-3D normalised to day-0 seeding control.
# cond: 1 µM; days in culture: 228
# CTG-3D luminescence at 96 h listing for each entry below
Lab note: record just the number, no unit beside it.

Some compounds with known CTG-3D luminescence at 96 h results, for comparison:
1. CCN1CCN(Cc2ccc(Nc3ncc(F)c(-c4cc(F)c5nc(C)n(C(C)C)c5c4)n3)nc2)CC1 [abemaciclib]	1.86
2. C[C@]12CC[C@@H]3c4ccc(O)cc4C[C@@H](CCCCCCCCC[S+]([O-])CCCC(F)(F)C(F)(F)F)[C@H]3[C@@H]1CC[C@@H]2O (some centres not stated) [fulvestrant]	1.62
3. O=C(c1ccc(F)c(F)c1Nc1ccc(I)cc1F)N1CC(O)([C@@H]2CCCCN2)C1 [cobimetinib]	1.11
4. COc1cc2c(Oc3ccc4[nH]c(C)cc4c3F)ncnc2cc1OCCCN1CCCC1 [cediranib]	1.69
5. CN(Cc1cnc2nc(N)nc(N)c2n1)c1ccc(C(=O)N[C@@H](CCC(=O)O)C(=O)O)cc1 [methotrexate]	1.97
6. C[C@@H]1COCCN1c1cc(C2([S@](C)(=N)=O)CC2)nc(-c2cc[nH]c3nccc2-3)n1 [ceralasertib]	1.36

Could you tell me which CTG-3D luminescence at 96 h is on file for Cc1nc(-c2cn3c(n2)-c2ccc(-c4cnn(C(C)(C)C(N)=O)c4)cc2OCC3)n(C(C)C)n1 [taselisib] ?
0.439
